All figures here come from patent US20250120951A1.

experiment: Solubility testing for clemizole HCl in solvent systems (Example 1); format: physicochemical; conditions: citrate buffer, pH 4.5, aqueous with cosolvent or surfactant or cyclodextrin, pH 4.5 Citrate Buffer 95.0 / Cremophor RH40 5.0 % w/w; read-out: Actual Solubility
Where a name gives a salt, the structure may show the parent alone.

{"compound": "Clc1ccc(Cn2c(CN3CCCC3)nc3ccccc32)cc1 [clemizole HCl]", "unit-info": "mg/mL", "solubility": 19.7}

###

assay: Solubility testing for clemizole HCl in solvent systems (Example 1); type: physicochemical; settings: citrate buffer, pH 4.5, aqueous with cosolvent or surfactant or cyclodextrin, pH 4.5 Citrate Buffer 94.5 / Polysorbate 20 5.0 / Sodium ascorbate 0.5 % w/w; read-out: Actual Solubility
Counter-ions that a name gives are not always drawn.

{"compound": "Clc1ccc(Cn2c(CN3CCCC3)nc3ccccc32)cc1 [clemizole HCl]", "solubility [mg/mL]": 21.4}

###

experiment: Solubility testing for clemizole HCl in solvent systems (Example 1); type: physicochemical; conditions: citrate buffer, pH 4.5, aqueous with cosolvent or surfactant or cyclodextrin, pH 4.5 Citrate Buffer 90.0 / 2-Hydroxypropyl-β-cyclodextrin 10.0 % w/w; read-out: Actual Solubility
Where a name gives a salt, the structure may show the parent alone.
outcome-measure: solubility (mg/mL)

{"compound": "Clc1ccc(Cn2c(CN3CCCC3)nc3ccccc32)cc1 [clemizole HCl]", "outcome-measure": "solubility", "observed": 29.9}

###

assay: Solubility testing for clemizole HCl in solvent systems (Example 1); type: physicochemical; settings: phosphate buffer, pH 6.8, aqueous buffer, pH 6.8 Phosphate Buffer 100% w/w; read-out: Actual Solubility
Structures can show the parent of a compound that is named as a salt.

{"molecule": "Clc1ccc(Cn2c(CN3CCCC3)nc3ccccc32)cc1 [clemizole HCl]", "unit-info": "µg/mL", "solubility": 60}

###

assay: Solubility testing for clemizole HCl in solvent systems (Example 1); format: physicochemical; conditions: Solutol HS15 solution, 40 °C, aqueous with cosolvent or surfactant or cyclodextrin, 20% w/w solution of Solutol HS15 at 40° C.; read-out: solubility of clemizole HCl
Structures can show the parent of a compound that is named as a salt.

{"compound": "Clc1ccc(Cn2c(CN3CCCC3)nc3ccccc32)cc1 [clemizole HCl]", "solubility, mg/mL": 36}

###

assay: Solubility testing for clemizole HCl in solvent systems (Example 1); type: physicochemical; conditions: citrate buffer, pH 4.5, aqueous with cosolvent or surfactant or cyclodextrin, pH 4.5 Citrate Buffer 95.0 / TPGS 5.0 % w/w; read-out: Actual Solubility
Structures can show the parent of a compound that is named as a salt.
outcome-measure: solubility (mg/mL)

{"compound": "Clc1ccc(Cn2c(CN3CCCC3)nc3ccccc32)cc1 [clemizole HCl]", "outcome-measure": "solubility", "observed": 25.9}

###

experiment: Solubility testing for clemizole HCl in solvent systems (Example 1); assay type: physicochemical; details: citrate buffer, pH 4.5, aqueous buffer, pH 4.5 Citrate Buffer 100% w/w; read-out: Actual Solubility
Where a name gives a salt, the structure may show the parent alone.
outcome-measure: solubility (mg/mL)

{"compound": "Clc1ccc(Cn2c(CN3CCCC3)nc3ccccc32)cc1 [clemizole HCl]", "outcome-measure": "solubility", "observed": 12.7}

###

Test: Solubility testing for clemizole HCl in solvent systems (Example 1)
Assay type: physicochemical
Settings: citrate buffer, pH 4.5, aqueous with cosolvent or surfactant or cyclodextrin, pH 4.5 Citrate Buffer 79.5 / PEG400 20.0 / Sodium ascorbate 0.5 % w/w; read-out: Actual Solubility
Protocol: Solubility testing for clemizole HCl in a compatible solvent system was conducted to identify a buffer system that solubilized the required concentration of clemizole HCl without any precipitation. […] Actual clemizole HCl solubility values in each of the solvent systems are described in Table 1.
Counter-ions that a name gives are not always drawn.
outcome-measure: solubility

{"compound": "Clc1ccc(Cn2c(CN3CCCC3)nc3ccccc32)cc1 [clemizole HCl]", "observed": "9290 µg/mL"}
